assay: Cmax in B6 mouse at 10 mg/kg, po by UV-HPLC analysis; assay type: ADME, organism-based; set-up: dose 10 mg/kg, route oral; conditions: in vivo
parameterMeasured: Cmax
Please format your answer as a value with the unit trailing.

Query: Read off the recorded Cmax for CCn1nc(C)cc1C(=O)Nc1cccc(C(=O)c2ccc3c(/C=C/c4ccccn4)n[nH]c3c2)c1.Cl
Result: 12 ng/mL

====

test: Antiproliferative activity against VEGF-stimulated HUVEC cells assessed as reduction in cell viability at 10 nM preincubated for 1 hr followed by addition of VEGF measured after 72 hrs by MTT assay; type: functional; conditions: Homo sapiens
parameterMeasured: inhibition at 0.01 µM (%)
The reply should contain only the number, in %.

Before answering, review these 7 worked examples.
| compound | parameterMeasured | testResult |
| --- | --- | --- |
| O=C(c1cccc(NC(=O)C2CC3C=CCC(C3)C2)c1)c1ccc2c(/C=C/c3ccccc3)n[nH]c2c1 (stereo not drawn) | inhibition at 0.01 µM | 56 |
| O=C1CCC(C(=O)Nc2cccc(C(=O)c3ccc4c(/C=C/c5ccccc5)n[nH]c4c3)c2)CC1 | inhibition at 0.01 µM | 10 |
| O=C(Nc1cccc(Nc2ccc3c(/C=C/c4ccccc4)n[nH]c3c2)c1)c1cccc2cc[nH]c12 | inhibition at 0.01 µM | 94 |
| O=C1CC[C@H](C(=O)Nc2cccc(Oc3ccc4c(/C=C/c5ccccc5)n[nH]c4c3)c2)N1 | inhibition at 0.01 µM | 32 |
| O=C(Nc1cccc(Nc2ccc3c(/C=C/c4ccccc4)n[nH]c3c2)c1)c1cc(=O)[nH]c(=O)[nH]1 | inhibition at 0.01 µM | 12 |
| CC(C)c1ccccc1C(=O)Nc1cccc(Nc2ccc3c(/C=C/c4ccccc4)n[nH]c3c2)c1 | inhibition at 0.01 µM | 79 |
| CC(C)C(=O)Nc1cccc(Nc2ccc3c(/C=C/c4ccccc4)n[nH]c3c2)c1 | inhibition at 0.01 µM | 24 |

Query: Read off the recorded inhibition at 0.01 µM for O=C1C[C@H](C(=O)Nc2cccc(Nc3ccc4c(/C=C/c5ccccc5)n[nH]c4c3)c2)NC(=O)N1
Result: 17

====

assay: Antiproliferative activity against VEGF-stimulated HUVEC cells assessed as reduction in cell viability at 10 nM preincubated for 1 hr followed by addition of VEGF measured after 72 hrs by MTT assay; format: functional; conditions: Homo sapiens
parameterMeasured: inhibition at 0.01 µM
Please format your answer as a value with the unit trailing.

| compound | testResult |
| --- | --- |
| O=C(Cc1ccccc1)C(=O)Nc1cccc(Oc2ccc3c(/C=C/c4ccccc4)n[nH]c3c2)c1 | 25% |
| CC(=O)N1CCCC1C(=O)Nc1cccc(Nc2ccc3c(/C=C/c4ccccc4)n[nH]c3c2)c1 (stereo not drawn) | -2% |
| O=C(Cc1cc(F)ccc1F)Nc1cccc(Nc2ccc3c(/C=C/c4ccccc4)n[nH]c3c2)c1 | 64% |
| O=C(Nc1cccc(C(=O)c2ccc3c(/C=C/c4ccccc4)n[nH]c3c2)c1)C(=O)C1=CCCCC1 | 45% |

Query: Read off the recorded inhibition at 0.01 µM for O=C1CCC(C(=O)Nc2cccc(Oc3ccc4c(/C=C/c5ccccc5)n[nH]c4c3)c2)CC1
Result: 59%

Query: Read off the recorded inhibition at 0.01 µM for Cc1cc(C(=O)Nc2cccc(Nc3ccc4c(/C=C/c5ccccc5)n[nH]c4c3)c2)nn1C
Result: 95%

Query: Read off the recorded inhibition at 0.01 µM for Cn1cnc(CC(=O)Nc2cccc(Oc3ccc4c(/C=C/c5ccccc5)n[nH]c4c3)c2)c1
Result: 20%

Query: Read off the recorded inhibition at 0.01 µM for O=C(/C=C/C1C[C@H]2C=C[C@H]1C2)Nc1cccc(C(=O)c2ccc3c(/C=C/c4ccccc4)n[nH]c3c2)c1 (stereo partly drawn)
Result: 37%

====

test: AUClast in B6 mouse at 200 mg/kg, po by UV-HPLC analysis; assay type: ADME, organism-based; parameters: dose 200 mg/kg, time 0 - last, route oral; details: in vivo
parameterMeasured: AUC(0-t) (µg·h/mL)
The reply should contain only the number, in µg·h/mL.

Query: Read off the recorded AUC(0-t) for Cc1cc(C(=O)Nc2cccc(C(=O)c3ccc4c(/C=C/c5ccccn5)n[nH]c4c3)c2)n(C)n1.Cl
Result: 156

====

assay: Terminal half life in B6 mouse at 50 mg/kg, po by UV-HPLC analysis; assay type: ADME, organism-based; details: B6, mouse, in vivo, read-out: beta t1/2 (converted)
parameterMeasured: half-life (h)
The reply should contain only the number, in h.

Query: Read off the recorded half-life for O=C(Nc1cccc(C(=O)c2ccc3c(/C=C/c4ccccc4)n[nH]c3c2)c1)c1ccncc1
Result: 1.2

Query: Read off the recorded half-life for O=C(Nc1cc(Nc2ccc3c(/C=C/c4ccccc4)n[nH]c3c2)ccc1F)c1ccccc1
Result: 3.4

Query: Read off the recorded half-life for O=C(c1cccc(NC(=O)c2cccc3[nH]ccc23)c1)c1ccc2c(/C=C/c3ccccn3)n[nH]c2c1
Result: 1.5

Query: Read off the recorded half-life for O=C(Nc1cccc(C(=O)c2ccc3c(/C=C/c4ccccn4)n[nH]c3c2)c1)c1ccncc1
Result: 1.1

Query: Read off the recorded half-life for CCNC(=O)c1ccccc1Sc1ccc2c(/C=C/c3ccccn3)n[nH]c2c1
Result: 0.9

Query: Read off the recorded half-life for O=C(NC1CC1)c1ccccc1Sc1ccc2c(/C=C/c3ccccn3)n[nH]c2c1
Result: 0.7

Query: Read off the recorded half-life for O=C(Nc1cccc(C(=O)c2ccc3c(/C=C/c4ccccn4)n[nH]c3c2)c1)c1ccccc1
Result: 2

Query: Read off the recorded half-life for CCn1nc(C)cc1C(=O)Nc1cc(C(=O)c2ccc3c(/C=C/c4ccccn4)n[nH]c3c2)ccc1C
Result: 3.4

Query: Read off the recorded half-life for CCCNC(=O)c1ccccc1Sc1ccc2c(/C=C/c3ccccn3)n[nH]c2c1
Result: 0.9

====

# reported half-life; entries follow
experiment: Terminal half life in B6 mouse at 50 mg/kg, po by UV-HPLC analysis; format: ADME, organism-based; conditions: B6, mouse, in vivo, read-out: beta t1/2 (converted)
The reply should contain only the number, in min.

| smilesData | parameterMeasured | testResult |
| --- | --- | --- |
| O=C(Nc1ccccc1)c1ccccc1Sc1ccc2c(/C=C/c3ccccn3)n[nH]c2c1 | half-life | 180 |
| C#CCNC(=O)c1ccccc1Sc1ccc2c(/C=C/c3ccccn3)n[nH]c2c1 | half-life | 54 |
| CC(C)ONC(=O)c1ccccc1Sc1ccc2c(/C=C/c3ccccn3)n[nH]c2c1 | half-life | 66 |
| CCn1nc(C)cc1C(=O)Nc1cccc(C(=O)c2ccc3c(/C=C/c4ccccn4)n[nH]c3c2)c1 | half-life | 204 |
| CCn1nc(C)cc1C(=O)Nc1cccc(Oc2ccc3c(/C=C/c4ccccn4)n[nH]c3c2)c1 | half-life | 2360 |
| C=CCONC(=O)c1ccccc1Sc1ccc2c(/C=C/c3ccccn3)n[nH]c2c1 | half-life | 270 |
| O=C(NC1CCC1)c1ccccc1Sc1ccc2c(/C=C/c3ccccn3)n[nH]c2c1 | half-life | 294 |
| O=C(NCC(F)(F)F)c1ccccc1Sc1ccc2c(/C=C/c3ccccn3)n[nH]c2c1 | half-life | 42 |
| Cc1ccc2cc(NC(=O)c3ccccc3Sc3ccc4c(/C=C/c5ccccn5)n[nH]c4c3)ccc2n1 | half-life | 180 |
| Cn1cccc1C(=O)NNC(=O)c1ccccc1Sc1ccc2c(/C=C/c3ccccn3)n[nH]c2c1 | half-life | 54 |

Query: Read off the recorded half-life for O=C(Nc1nccs1)c1ccccc1Sc1ccc2c(/C=C/c3ccccn3)n[nH]c2c1
Result: 72

Query: Read off the recorded half-life for Cn1nc(C(C)(C)C)cc1C(=O)Nc1cccc(C(=O)c2ccc3c(/C=C/c4ccccn4)n[nH]c3c2)c1
Result: 114

Query: Read off the recorded half-life for O=C(Nc1cccc(C(=O)c2ccc3c(/C=N/n4cccc4)n[nH]c3c2)c1)c1ccccc1
Result: 180

Query: Read off the recorded half-life for O=C(c1cccc(NC(=O)c2ccccn2)c1)c1ccc2c(/C=C/c3ccccc3)n[nH]c2c1
Result: 132
